Test system: M19-MEL
experimentalProtocol: NCI tumour cell line growth inhibition, 48 h
Calls of active or inactive are those of the source. Rule as the data show it: active = GI50 up to about 1.1 µM and inactive = higher.
Reported GI50 values for a set of compounds
parameterMeasured: GI50

compound="C=CCCC12CCCC(=O)C1Sc1ccc3ccccc3c12 (configuration not stated)" valuereported="24.1 µM (inactive)"
compound=CN(/N=C/c1cccc2cccnc12)c1ccc([N+](=O)[O-])cc1 valuereported="> 100 µM (inactive)"
compound=COc1ccc(OC)c(NCC#N)c1 valuereported="> 100 µM (inactive)"
compound="CC(C)CCC[C@@H](C)[C@H]1CC[C@H]2[C@@H]3CC=C4CC(OCCCCN(O)CCCSC5OC(CO)C(O)C(O)C5O)CC[C@]4(C)[C@H]3CC[C@]12C (some centres not stated)" valuereported="> 100 µM (inactive)"
compound="NC(=O)c1csc(C2OC(CO)C(O)C2O)n1 (configuration not stated)" valuereported="29 µM (inactive)"
compound="CC1C(=O)N(C)C2(CO)C(=O)O[C@H](C)C12O (some centres not stated)" valuereported="> 100 µM (inactive)"
compound=O=C(CSSCC(=O)Nc1ccc(Br)cc1)Nc1ccc(Br)cc1 valuereported="18.5 µM (inactive)"
compound="CC(C)N(C(=O)C12C3C4C5(C#N)C3C1(C#N)C5C42C#N)C(C)C (configuration not stated)" valuereported="> 100 µM (inactive)"
compound="CCN1CCC(O)(/C=C/c2ccc(Cl)cc2)C(C(=O)/C=C/c2ccc(Cl)cc2)C1 (configuration not stated)" valuereported="29.9 µM (inactive)"
compound=COc1cc(OC)c2c(c1)C(=O)C(CC1(C)OCCCO1)=CC2=O valuereported="3.37 µM (inactive)"
compound=CCCCCCCCCOC(=S)NCCCCC valuereported="39.3 µM (inactive)"
compound=C=C(C(=C)P(=S)(c1ccccc1)c1ccccc1)P(=S)(c1ccccc1)c1ccccc1 valuereported="> 100 µM (inactive)"
compound=Cc1ccccc1NC(=O)CSc1nnc(-c2ccc(/N=C\c3ccc(Cl)cc3)cc2)o1 valuereported="> 100 µM (inactive)"
compound="CC(=O)OCC1=C(CCC#N)N2C(=O)C(NC(=O)Cc3cccs3)C2[S+]([O-])C1 (configuration not stated)" valuereported="> 100 µM (inactive)"
compound="O=C1C(Cl)N(c2cccc([N+](=O)[O-])c2)C1c1c[nH]c2ccccc12 (configuration not stated)" valuereported="18.1 µM (inactive)"
compound=O=c1c2cc(Br)ccc2nc(CCl)n1-c1ccc(O)c([N+](=O)[O-])c1 valuereported="19.8 µM (inactive)"
compound=C#CC[C@]12CC(=O)CC[C@H]1CC(=O)C2 valuereported="> 100 µM (inactive)"

----------
Tested on: CCRF-CEM
experimentalProtocol: NCI tumour cell line growth inhibition, 48 h
The source made the active and inactive calls. No stated cut-off is given here; in the data, active = GI50 up to about 1.1 µM and inactive = higher.
parameterMeasured: GI50

molecule=CC1=C(O)C(=O)[C@@H]2O[C@@H]2C1=O parametermeasured=GI50 valuereported="1.6 µM (inactive)"
molecule=Nc1nc(=O)c(/N=N/c2ccc([As](=O)(O)O)cc2)c(N)[nH]1 parametermeasured=GI50 valuereported="> 100 µM (inactive)"
molecule=O=C1ON=C2C3CC4CC12CC1(C3)C(=O)ON=C41 parametermeasured=GI50 valuereported="> 100 µM (inactive)"
molecule=Cc1nc(C(N)=S)sc1C(=O)C/C(=N/N)C(=O)Nc1cccc(Cl)c1C parametermeasured=GI50 valuereported="> 100 µM (inactive)"
molecule=COC(=O)[C@H]1C=NN[C@@H]1C(=O)N1[C@H]2CC3CC[C@@]2(CS1(=O)=O)C3(C)C parametermeasured=GI50 valuereported="> 100 µM (inactive)"
molecule=Nc1nc(SCC(=O)O)nc(O)c1N parametermeasured=GI50 valuereported="1.32 µM (inactive)"
molecule="CCC1CC(=O)N(SCC(N)C(=O)O)C1=O (centres undefined)" parametermeasured=GI50 valuereported="> 100 µM (inactive)"
molecule=COP(=O)(Cc1ccccc1)Cc1ccccc1 parametermeasured=GI50 valuereported="> 100 µM (inactive)"
molecule=N#C/C(=C\c1ccccc1)C(=O)Nc1nnc(-c2ccccc2)o1 parametermeasured=GI50 valuereported="17.9 µM (inactive)"

----------
// values below are reported GI50
Tested on: COLO 205
experimentalProtocol: NCI tumour cell line growth inhibition, 48 h
Activity calls are given as the source filed them. No stated cut-off is given here; in the data, active = GI50 up to about 1.1 µM and inactive = higher.
parameterMeasured: GI50

molecule=CC(=O)N1C(=O)c2cc3ccccc3cc21 valuereported="> 100 µM (inactive)"
molecule="O=S(=O)(NC1OCCCC1I)c1ccccc1 (stereo unspecified)" valuereported="> 100 µM (inactive)"
molecule=COc1cccc(NC(=O)CC(=O)n2nc(C)c(/N=N/c3ccccc3)c2C)c1 valuereported="> 100 µM (inactive)"
molecule=O=c1n(CCCN2CCN(c3cccc(Cl)c3)CC2)nc2n1-c1ccc3ccccc3c1SC2 valuereported="4.4 µM (inactive)"
molecule=COc1ccc2nc3cccc([N+](=O)[O-])c3c(NCCO)c2c1 valuereported="0.00527 µM (active)"
molecule=O=C(O)CCN(CCC(=O)O)c1ccc(/C=C2\SC(=S)NC2=O)cc1 valuereported="> 100 µM (inactive)"

----------
System: IGROV-1
experimentalProtocol: NCI tumour cell line growth inhibition, 48 h
The source made the active and inactive calls. No stated cut-off is given here; in the data, active = GI50 up to about 1.1 µM and inactive = higher.
Possible outcomes: active, inactive

compound=COc1ccc(O)c(/C=N/CCC/N=C/c2cc(OC)ccc2O)c1 assignedclass=inactive
compound=c1ccc2c(c1)-c1ccccc1C2N1CC2CCC(CC2)C1 assignedclass=inactive
compound="O=C1/C(=C/c2n[nH]cc2-c2ccc(Cl)cc2)C(=O)N(c2ccccc2)C1c1ccccc1 (stereo unspecified)" assignedclass=inactive
compound="COC(=O)C(=O)C(C(=O)C(=O)Nc1ccc(C)c(C)c1)c1nc2ccc([N+](=O)[O-])cc2nc1O (stereo unspecified)" assignedclass=inactive
compound="C=C1CCc2occ(C)c2C2C1C1=C(CC(C)C1=O)C1OC12C (stereo unspecified)" assignedclass=inactive
compound=Cc1cc(NS(=O)(=O)c2ccc(NC(=O)c3cccc4cc5ccccc5nc34)cc2)no1 assignedclass=inactive
compound="COc1ccc(N[S+]([O-])C2CCCCC2)cc1 (stereo unspecified)" assignedclass=inactive
compound=O=C(N/N=C\c1ccc([N+](=O)[O-])s1)c1ccncc1 assignedclass=inactive
compound=Cc1nc(Nc2ccccc2)sc1C(=O)NNC(N)=O assignedclass=inactive
compound=O=C(CSc1nc(-c2ccccc2)c(-c2ccccc2)[nH]1)N/N=C/c1ccc([N+](=O)[O-])cc1 assignedclass=inactive
compound=COc1cc(Nc2cnc3cc(F)c(F)cc3n2)cc(OC)c1OC assignedclass=inactive
compound=CCCCCCCCCOC(=S)NCCCCC assignedclass=inactive
compound=CCOC(=O)COc1cc(-c2ccccc2F)nc2cc3c(cc12)OCO3 assignedclass=inactive
compound="CCOC(=O)[C@@H]1ON2O[C@@H](OC3CCCCC3c3ccccc3)C[C@H]3OC(=O)[C@@H]1C32 (stereo partly specified)" assignedclass=inactive
compound=CC1(C)CC(=O)c2c(nc3ccc4ccccc4c3c2-c2ccc(NC(=O)CCCC(=O)Nc3ccc(-c4c5c(nc6ccc7ccccc7c46)CC(C)(C)CC5=O)cc3)cc2)C1 assignedclass=inactive
compound="COC1OC2COC(c3ccccc3)OC2C(O)C1OC(=S)c1ccccc1 (stereo unspecified)" assignedclass=inactive
compound=CCN(CC)CCCNc1n[n+]([O-])c2ccccc2[n+]1[O-] assignedclass=inactive
compound=COc1cc2c(c3nc4ccccc4nc13)-c1ccc(SC)c(=O)cc1[C@@H](NC(C)=O)CC2 assignedclass=active
compound=N#C/C(=C\c1ccccc1)C(=O)Nc1nnc(-c2ccccc2)o1 assignedclass=inactive
compound=CCOC(=O)/C(=C/c1ccc(OC)c(OC)c1)C(=O)c1ccccc1 assignedclass=inactive
compound="O=C1C(Cl)N(c2cccc([N+](=O)[O-])c2)C1c1c[nH]c2ccccc12 (stereo unspecified)" assignedclass=inactive

----------
Tested on: SK-MEL-28
experimentalProtocol: NCI tumour cell line growth inhibition, 48 h
Counter-ions that a name gives are not always drawn. Active and inactive are the calls of the source. No stated cut-off is given here; in the data, active = GI50 up to about 1.1 µM and inactive = higher.
Outcomes: active, inactive

compound=O=c1n(CCCN2CCN(c3cccc(Cl)c3)CC2)nc2n1-c1ccc3ccccc3c1SC2 assignedclass=inactive
compound="CCCCCCCCCCOC1C(C(C)OCCCN(C)C)OC2OC3(CCCCC3)OC21 (stereo unspecified)" assignedclass=inactive
compound=COc1ccc(/C=C(\C#N)c2nc(N)nc(N3N=C(C)CC3(C)C)n2)c(O)c1 assignedclass=inactive
compound=O=C(O)CCN(CCC(=O)O)c1ccc(/C=C2\SC(=S)NC2=O)cc1 assignedclass=inactive
compound="Cc1ccc(C)c(C2NC(=O)c3ccccc3N2)c1 (stereo unspecified)" assignedclass=inactive
compound=Cc1nc(Nc2ccccc2)sc1C(=O)NNC(N)=O assignedclass=inactive
compound="C=CCNC(=S)N1c2ccccc2NC(=O)CC1C (stereo unspecified)" assignedclass=inactive
compound=CCCCCCCCCOC(=S)NCCCCC assignedclass=inactive
compound="O=C1NP23(OCCO2)Oc2ccccc2C3(C(F)(F)F)O1 (stereo unspecified)" assignedclass=inactive
compound="N=C(N)N/N=C(/CCN1CCCC1)CC(c1ccccc1)c1c(O)c2ccccc2oc1=O (stereo unspecified)" assignedclass=inactive
compound="CC(C)=CC[S+]([O-])c1ccccc1NC1=CC(=O)CC(C)(C)C1 (stereo unspecified)" assignedclass=inactive
compound=CCOC(=O)COc1cc(-c2ccccc2F)nc2cc3c(cc12)OCO3 assignedclass=inactive
compound=CC1=C(Br)C(=O)c2c(O)ccc(O)c2C1=O assignedclass=active
compound=Cc1ccc([N+](=O)[O-])cc1NC(=O)C(=O)Cc1cc(=O)oc2cc(O)ccc12 assignedclass=inactive
compound=O=C1CC2(CCNCC2)C(=O)N1N1CCCCC1 assignedclass=inactive
compound="CCNC(=O)O/N=C1/C=C2CC[C@@H]3C(CC[C@@]4(C)C3CC[C@@H]4OC(=O)NCC)[C@@]2(C)CC1 (stereo partly specified)" assignedclass=inactive
compound="CN(C)CCOC(=O)COc1ccc(Cl)cc1 [CENTROPHENOXINE HYDROCHLORIDE]" assignedclass=inactive
compound=CCOc1c(Cc2ccccc2)c(=O)n2c3ccccc3n3c(=O)n(C)c(=O)c1c23 assignedclass=inactive
compound=O=C(CSc1nc(-c2ccccc2)c(-c2ccccc2)[nH]1)N/N=C/c1ccc([N+](=O)[O-])cc1 assignedclass=inactive
compound=Cc1cc(S(=O)(=O)Nc2nc3ccccc3nc2-c2cccc([N+](=O)[O-])c2)c(S)cc1Cl assignedclass=inactive
compound=CCOC(=O)Oc1ccc2c(c1)c(=O)c1c(NCCN(CC)CC)ccc3nnn2c31 assignedclass=inactive
